- Tested on: 922993-354-T-J3-PDC complex spheroids, viability
- ASSAY_NOTES: Anticancer human tumor 922993-354-T-J3-PDC patient-derived endometrial carcinoma cell line growth inhibition [GQUAD]
- RECORDED_CONDITIONS: second compound 0.316 µM; first compound 0.1 µM; active compounds read low
Reported viability, T/C by item:
READOUT: viability, T/C

1. COc1ccc([C@@H](O)c2cc(-c3ncnc4cc(N5CCOCC5)ccc34)c(F)cc2Cl)nn1 + Cc1cnc(CNC(=O)c2c(=O)c3ccc(N4CCCN(C)CC4)nc3n3c2sc2ccccc23)cn1 : 54.3%
2. O=C(NO)c1cnc(N2CCN(S(=O)(=O)c3ccc4ccccc4c3)CC2)nc1 + Cc1[nH]c2ccc(F)cc2c1-c1nc2c3cccnc3c3ncccc3c2[nH]1 : 95.9%
3. CC(C)n1c(=O)n(C)c2cnc3cc(F)c(-c4ccc(OCCCN5CCCCC5)nc4)cc3c21 + Cc1cnc(CNC(=O)c2c(=O)c3ccc(N4CCCN(C)CC4)nc3n3c2sc2ccccc23)cn1 : 41.4%
4. C=CCn1c(=O)c2cnc(Nc3ccc(N4CCN(C)CC4)cc3)nc2n1-c1cccc(C(C)(C)O)n1 + Cc1cnc(CNC(=O)c2c(=O)c3ccc(N4CCCN(C)CC4)nc3n3c2sc2ccccc23)cn1 : 42%
5. Cc1cccc(N(C)C(=O)C2C(O)CCN2c2nc(C)cc(C(F)(F)F)c2C#N)c1 (stereo unspecified) + Cc1cnc(CNC(=O)c2c(=O)c3ccc(N4CCCN(C)CC4)nc3n3c2sc2ccccc23)cn1 : 42.7%
6. CC(C)n1c(=O)n(C)c2cnc3cc(F)c(-c4ccc(OCCCN5CCCCC5)nc4)cc3c21 + Cc1[nH]c2ccc(F)cc2c1-c1nc2c3cccnc3c3ncccc3c2[nH]1 : 124%
7. COc1cc(C2c3cc4c(cc3C(OC3OC5COC(C)OC5C(O)C3O)C3COC(=O)C23)OCO4)cc(OC)c1O (stereo unspecified) + CN(C)c1ccc(Nc2c3ccc(NC(=O)CCN4CCCC4)cc3nc3cc(NC(=O)CCN4CCCC4)ccc23)cc1 : 101%
8. CC1COCCN1c1cc(C2(S(C)(=N)=O)CC2)nc(-c2ccnc3[nH]ccc23)n1 (stereo unspecified) + Cc1cnc(CNC(=O)c2c(=O)c3ccc(N4CCCN(C)CC4)nc3n3c2sc2ccccc23)cn1 : 50.7%
9. CC1COCCN1c1cc(C2(O)CC3CCC(C2)O3)c2cnn(-c3ccn[nH]3)c2n1 (stereo unspecified) + Cc1[nH]c2ccc(F)cc2c1-c1nc2c3cccnc3c3ncccc3c2[nH]1 : 94.3%
10. O=C(c1cc(Cc2n[nH]c(=O)c3ccccc23)ccc1F)N1CCN(C(=O)C2CC2)CC1 + Cc1cnc(CNC(=O)c2c(=O)c3ccc(N4CCCN(C)CC4)nc3n3c2sc2ccccc23)cn1 : 46.1%
11. O=c1[nH]cc(F)c(=O)[nH]1 + CN(C)c1ccc(Nc2c3ccc(NC(=O)CCN4CCCC4)cc3nc3cc(NC(=O)CCN4CCCC4)ccc23)cc1 : 100%

* * *

- Tested on: 922993-354-T-J3-PDC complex spheroids, viability
- ASSAY_NOTES: Anticancer human tumor 922993-354-T-J3-PDC cell line growth inhibition [GQUAD];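 note: spheroids exposed to compounds for seven days; 100% = DMSO vehicle control viability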
- RECORDED_CONDITIONS: second compound 0.0316 µM; first compound 0.316 µM; active compounds read low
- From the text: DNA G-quadruplex Stabilizer Agents in Combinations in Complex Spheroids A high-throughput screen of multi-cell type tumor spheroids was designed to identify active combinations of DNA G-quadruplex stabilizer agents and targeted small molecules. […] Compounds. […] If the clinical Cmax for an agent had not been determined, the highest concentration tested was 10 microM. […]
READOUT: viability, T/C (%)

1) COc1cccc2c1C(=O)c1c(O)c3c(c(O)c1C2=O)CC(O)(C(=O)CO)CC3OC1CC(N)C(O)C(C)O1 (stereo unspecified) + Cc1cnc(CNC(=O)c2c(=O)c3ccc(N4CCCN(C)CC4)nc3n3c2sc2ccccc23)cn1 : 67.2
2) O=c1[nH]cc(F)c(=O)[nH]1 + CN(C)c1ccc(Nc2c3ccc(NC(=O)CCN4CCCC4)cc3nc3cc(NC(=O)CCN4CCCC4)ccc23)cc1 : 81.8
3) CC(C)n1c(=O)n(C)c2cnc3cc(F)c(-c4ccc(OCCCN5CCCCC5)nc4)cc3c21 + Cc1cnc(CNC(=O)c2c(=O)c3ccc(N4CCCN(C)CC4)nc3n3c2sc2ccccc23)cn1 : 59.3
4) CC(C)(O)C1CCC(Nc2ccc3ncc(-c4cccc(C(F)(F)F)c4)n3n2)CC1 (stereo unspecified) + CN(C)c1ccc(Nc2c3ccc(NC(=O)CCN4CCCC4)cc3nc3cc(NC(=O)CCN4CCCC4)ccc23)cc1 : 99.9
5) CCCS(=O)(=O)Nc1ccc(F)c(C(=O)c2c[nH]c3ncc(-c4ccc(Cl)cc4)cc23)c1F + CN(C)c1ccc(Nc2c3ccc(NC(=O)CCN4CCCC4)cc3nc3cc(NC(=O)CCN4CCCC4)ccc23)cc1 : 103
6) CC(C)(O)C1CCC(Nc2ccc3ncc(-c4cccc(C(F)(F)F)c4)n3n2)CC1 (stereo unspecified) + Cc1[nH]c2ccc(F)cc2c1-c1nc2c3cccnc3c3ncccc3c2[nH]1 : 76.6
7) CC[C@@]1(O)C(=O)OCc2c1cc1n(c2=O)Cc2cc3c(CN(C)C)c(O)ccc3nc2-1 + Cc1[nH]c2ccc(F)cc2c1-c1nc2c3cccnc3c3ncccc3c2[nH]1 : 57.1
8) O=C(NO)c1cnc(N2CCN(S(=O)(=O)c3ccc4ccccc4c3)CC2)nc1 + Cc1cnc(CNC(=O)c2c(=O)c3ccc(N4CCCN(C)CC4)nc3n3c2sc2ccccc23)cn1 : 59.2
9) C=CC(=O)N1CCN(c2nc(=O)n(-c3c(C)ccnc3C(C)C)c3nc(-c4c(O)cccc4F)c(F)cc23)C(C)C1 (stereo unspecified) + CN(C)c1ccc(Nc2c3ccc(NC(=O)CCN4CCCC4)cc3nc3cc(NC(=O)CCN4CCCC4)ccc23)cc1 : 102
10) COc1ccc([C@@H](O)c2cc(-c3ncnc4cc(N5CCOCC5)ccc34)c(F)cc2Cl)nn1 + CN(C)c1ccc(Nc2c3ccc(NC(=O)CCN4CCCC4)cc3nc3cc(NC(=O)CCN4CCCC4)ccc23)cc1 : 103
11) CC(C)n1c(=O)n(C)c2cnc3cc(F)c(-c4ccc(OCCCN5CCCCC5)nc4)cc3c21 + Cc1[nH]c2ccc(F)cc2c1-c1nc2c3cccnc3c3ncccc3c2[nH]1 : 113
12) C#Cc1c(F)ccc2cc(O)cc(-c3ncc4c(N5CC6CCC(C5)N6)nc(OCC56CCCN5CC(F)C6)nc4c3F)c12 (stereo unspecified) + Cc1[nH]c2ccc(F)cc2c1-c1nc2c3cccnc3c3ncccc3c2[nH]1 : 106
13) COc1ccc([C@@H](O)c2cc(-c3ncnc4cc(N5CCOCC5)ccc34)c(F)cc2Cl)nn1 + Cc1cnc(CNC(=O)c2c(=O)c3ccc(N4CCCN(C)CC4)nc3n3c2sc2ccccc23)cn1 : 88.1
14) COc1ncnc(C2CC2)c1-c1ncc2cnn(Cc3ccc(-c4nc(C(F)(F)F)cn4C(C)C)cc3)c2n1 + Cc1[nH]c2ccc(F)cc2c1-c1nc2c3cccnc3c3ncccc3c2[nH]1 : 80.7
15) CCc1c2c(nc3ccc(O)cc13)-c1cc3c(c(=O)n1C2)COC(=O)[C@]3(O)CC + Cc1cnc(CNC(=O)c2c(=O)c3ccc(N4CCCN(C)CC4)nc3n3c2sc2ccccc23)cn1 : 31.6
16) CC[C@@]1(O)C(=O)OCc2c1cc1n(c2=O)Cc2cc3c(CN(C)C)c(O)ccc3nc2-1 + CN(C)c1ccc(Nc2c3ccc(NC(=O)CCN4CCCC4)cc3nc3cc(NC(=O)CCN4CCCC4)ccc23)cc1 : 46.6
17) C=CCn1c(=O)c2cnc(Nc3ccc(N4CCN(C)CC4)cc3)nc2n1-c1cccc(C(C)(C)O)n1 + CN(C)c1ccc(Nc2c3ccc(NC(=O)CCN4CCCC4)cc3nc3cc(NC(=O)CCN4CCCC4)ccc23)cc1 : 87.4
18) CC1COCCN1c1cc(C2(O)CC3CCC(C2)O3)c2cnn(-c3ccn[nH]3)c2n1 (stereo unspecified) + CN(C)c1ccc(Nc2c3ccc(NC(=O)CCN4CCCC4)cc3nc3cc(NC(=O)CCN4CCCC4)ccc23)cc1 : 67
19) Cc1[nH]c2ccccc2c1CCNCc1ccc(/C=C/C(=O)NO)cc1 + Cc1cnc(CNC(=O)c2c(=O)c3ccc(N4CCCN(C)CC4)nc3n3c2sc2ccccc23)cn1 : 54.3
20) CCCS(=O)(=O)Nc1ccc(F)c(C(=O)c2c[nH]c3ncc(-c4ccc(Cl)cc4)cc23)c1F + Cc1cnc(CNC(=O)c2c(=O)c3ccc(N4CCCN(C)CC4)nc3n3c2sc2ccccc23)cn1 : 83.3
21) Nc1ccn(C2OC(CO)C(O)C2(F)F)c(=O)n1 (stereo unspecified) + CN(C)c1ccc(Nc2c3ccc(NC(=O)CCN4CCCC4)cc3nc3cc(NC(=O)CCN4CCCC4)ccc23)cc1 : 11.9

Data origin: PubChem BioAssay AID2060489
